# Assay Name: logP by HPLC on reversed-phase columns (C 18), EEC Directive 79/831 Annex V.A8
# Type: physicochemical
# Condition Parameters: values marked [b]; footnote not given
Reported logP values follow for various compounds
Measured Endpoint: logP

1) CC(C)Nc1nc(Nc2ccc(NC(=O)C(F)(F)F)cc2)ncc1Cl = 1.93[b]
2) CC(C)Nc1nc(Nc2cccc(CS(=O)(=O)N(C)C(C)C)c2)ncc1Cl = 2.18[b]
3) COCC(C)Nc1nc(Nc2ccc(NC=O)cc2)ncc1Cl (racemic) = 1.28[b]
4) COCC(C)Nc1nc(Nc2cccc(NC(=O)C(C)(C)C)c2)ncc1Cl (stereo not drawn) = 1.9[b]
5) CNC(=O)c1ccc(Nc2ncc(Br)c(NC(C)COC)n2)cc1 (racemic) = 1.46[b]
6) CCN(C)S(=O)(=O)Cc1cccc(Nc2ncc(Cl)c(NC(C)C)n2)c1 = 1.96[b]
7) COCC(C)Nc1nc(Nc2ccc(N3C(=O)CN(C)C3=O)cc2)ncc1Cl (stereo not drawn) = 1.41[b]
8) CC(C)Nc1nc(Nc2ccc(S(C)(=O)=O)cc2)ncc1Cl = 1.86[b]
9) COCC(C)Nc1nc(Nc2ccc(C)c(SC)c2)ncc1Cl (stereo not drawn) = 2.33[b]

---

Reported logP values follow for various compounds
# Assay Name: logP by HPLC on reversed-phase columns (C 18), EEC Directive 79/831 Annex V.A8
# Format: physicochemical
# Condition Parameters: values marked [b]; footnote not given
Measured Endpoint: logP

1) COC(=O)Nc1ccc(Nc2ncc(Cl)c(NC(C)C)n2)cc1 [Example 201] = 1.53[b]
2) CCc1cccc(Nc2ncc(Cl)c(NC(C)C)n2)c1 [Example 230] = 2.33[b]
3) COCC(C)Nc1nc(Nc2ccc(N(C(=O)C(F)(F)F)C3CC3)cc2)ncc1Cl (centres unmarked) [Example 164] = 2.55[b]
4) COc1cccc(Nc2ncc(Cl)c(NC(C)C)n2)c1 [Example 182] = 1.86[b]
5) CC(C)Nc1nc(Nc2ccc(C#N)cc2)ncc1Cl [Example 184] = 2.46[b]

---

# Assay Name: logP by HPLC on reversed-phase columns (C 18), EEC Directive 79/831 Annex V.A8
# Assay type: physicochemical
# Condition Parameters: method marker [a]; footnote not given
Measured Endpoint: logP

1. COCC(C)Nc1nc(Nc2ccc(C(C)C)cc2)ncc1Cl (stereo not drawn) = 2.38[a]
2. COCCNc1nc(Nc2ccc(S(=O)(=O)N(C)C)cc2)ncc1Cl = 1.9[a];
3. COCCNc1nc(Nc2ccc(OC(C)C)cc2)ncc1Cl = 1.78[a]
4. CC(C)(C)Nc1nc(Nc2ccccc2)ncc1Cl = 2.17[a]
5. CC(C)N(C)c1nc(Nc2ccccc2)ncc1Cl.Cl = 2.45[a]
6. CNc1nc(Nc2ccc(S(=O)(=O)N(C)C)cc2)ncc1Cl = 1.61[a]
7. CN(C)c1nc(Nc2ccc(S(=O)(=O)N(C)C)cc2)ncc1Cl = 2.49[a]
8. COCCNc1nc(Nc2ccccc2)ncc1Cl.Cl = 1.41[a];
9. COCCNc1nc(Nc2ccc(C(C)C)cc2)ncc1Cl = 2.09[a]
10. CC(C)c1ccc(Nc2ncc(Cl)c(NCCO)n2)cc1.Cl = 1.6[a]
11. COCC(C)Nc1nc(Nc2cccc(C(C)=O)c2)ncc1Cl (stereo not drawn) = 1.72[a]
12. CNc1nc(Nc2ccccc2)ncc1Cl = 1.27[a]
13. Cl.OCCNc1nc(Nc2ccccc2)ncc1Cl = 0.86[a]
14. COCCNc1nc(Nc2cccc(Cl)c2)ncc1Cl = 2.13[a];
15. C=CCNc1nc(Nc2ccccc2)ncc1Cl.Cl = 1.68[a]
16. COCCNc1nc(Nc2cc(OC)cc(OC)c2)ncc1Cl.Cl = 1.67[a];
17. CC(C)Nc1nc(Nc2cccc(S(=O)(=O)N(C)C)c2)ncc1Cl = 2.08[a]
18. COCC(C)Nc1nc(Nc2cccc(S(=O)(=O)N3CCOCC3)c2)ncc1Cl (stereo not drawn) = 2.1[a];
19. CCN(CC)c1nc(Nc2ccccc2)ncc1Cl = 2.29[a]
20. CN(C)c1nc(Nc2ccccc2)ncc1Cl = 1.78[a];
21. CC(=O)c1cccc(Nc2ncc(Cl)c(N(C)C)n2)c1.Cl = 1.84[a]

---

Reported logP values follow for various compounds
# Assay Name: logP by HPLC on reversed-phase columns (C 18), EEC Directive 79/831 Annex V.A8
# Format: physicochemical
# Condition Parameters: values marked [a]; pH 2.3
Measured Endpoint: logP

1. CSc1cccc(Nc2ncc(Cl)c(N(C)C(C)C)n2)c1 = 3.45[a];
2. CSc1cccc(Nc2ncc(Cl)c(NC(C)C)n2)c1 = 2.36[a];
3. N#CCNc1nc(Nc2ccccc2)ncc1Cl = 1.62[a];
4. CSc1cccc(Nc2ncc(Cl)c(NCC#N)n2)c1 = 2.27[a]
5. CCC(C)N(C)c1nc(Nc2cccc(C(C)=O)c2)ncc1Cl (stereo not drawn) = 2.88[a]
6. CCC(COC)N(C)c1nc(Nc2ccccc2)ncc1Br (stereo not drawn) = 2.23[a]

---

Reported logP values follow for various molecules
# Assay Name: logP by HPLC on reversed-phase columns (C 18), EEC Directive 79/831 Annex V.A8
# Type: physicochemical
# Condition Parameters: method marker [a]
Measured Endpoint: logP

1. CS(=O)(=O)c1ccc(Nc2ncc(Cl)c(NC3CCCCC3)n2)cc1 [Example 267] = 2.54[a]
2. CC(=O)c1ccc(Nc2ncc(Cl)c(NC3CCCCC3)n2)cc1 [Example 266] = 2.77[a]
3. CC(=O)c1cccc(Nc2ncc(Cl)c(NC3CCCCC3)n2)c1 [Example 262] = 2.53[a]
4. CCN(CC)c1ccc(Nc2ncc(Cl)c(NC3CCCCC3)n2)cc1 [Example 265] = 1.69[a]

---

# Assay Name: logP by HPLC on reversed-phase columns (C 18), EEC Directive 79/831 Annex V.A8
# Type: physicochemical
# Condition Parameters: reversed-phase HPLC column (C 18), method marker [c]; footnote not given; read-out: logP
Counter-ions that a name gives are not always drawn.
Measured Endpoint: chromatographic logP

1. COCC(C)Nc1nc(Nc2ccc(C(=O)OC)cc2)ncc1Cl (stereo not shown) [Example 38, hydrochloride] = 3.05

---

# Assay Name: logP by HPLC on reversed-phase columns (C 18), EEC Directive 79/831 Annex V.A8
# Format: physicochemical
# Condition Parameters: reversed-phase HPLC column (C 18), pH 2.3, pH 2.3, 0.1% aqueous phosphoric acid and acetonitrile; read-out: logP [a]
Counter-ions that a name gives are not always drawn.
Criterion: chromatographic logP meeting or surpassing 3. Met: met. Not met: not met.

1) CC(NS(=O)(=O)Cc1cccc(N)c1)c1ccccc1 (stereo not shown) = not met
2) CCC(C)N(C)c1nc(Cl)ncc1Cl (stereo not shown) = met
3) CC(C)N(C)S(=O)(=O)Cc1cccc([N+](=O)[O-])c1 = not met
4) COCC(C)Nc1nc(Nc2ccc(C(=O)OC)cc2)ncc1Cl (stereo not shown) [Example 38, hydrochloride] = not met
5) CC(C)CN(C)c1nc(Cl)ncc1Cl = met
6) CCN(c1nc(Cl)ncc1Cl)C(C)C = met
7) Clc1ncc(Cl)c(NC2CCCCC2)n1 = met
8) N#Cc1cnc(Nc2ccccc2)nc1Cl = not met
9) CCC(=O)N(C)c1cccc(N)c1 [IV-9, N-(3-aminophenyl)-N-methylpropanamide] = not met
10) CC(C)Nc1nc(Cl)ncc1Br = not met
11) Nc1cccc(CS(=O)(=O)NCc2ccccc2)c1 = not met
12) CCCNc1nc(Nc2ccccc2)ncc1C#N = not met
13) CC(NS(=O)(=O)Cc1cccc([N+](=O)[O-])c1)c1ccccc1 (stereo not shown) = not met
14) CC(C)(C)CNc1nc(Cl)ncc1Cl = met
15) COCCN(C)c1nc(Nc2ccccc2)ncc1Cl = not met
16) CCCNc1nc(Cl)ncc1Cl = not met
17) CCCCCNc1nc(Cl)ncc1Cl = met
18) CN1CCN(Cc2cccc([N+](=O)[O-])c2)C1=O = not met
19) CSCC(C)Nc1nc(Cl)ncc1Cl (stereo not shown) = not met
20) CC(C)c1cccc(Nc2ncc(C(F)(F)F)c(Cl)n2)c1 = met
21) CCCC(C)Nc1nc(Cl)ncc1Cl (stereo not shown) = met
22) O=[N+]([O-])c1cccc(CS(=O)(=O)NCc2ccccc2)c1 = not met
23) CC(C)(C)Nc1nc(Cl)ncc1Cl = met
24) CC(C)N(C)S(=O)(=O)Cc1cccc(N)c1 = not met
25) CC(C)CCNc1nc(Cl)ncc1Cl = met
26) CCN(C)S(=O)(=O)Cc1cccc([N+](=O)[O-])c1 = not met
27) CCC(CO)Nc1nc(Cl)ncc1Cl (stereo not shown) = not met
28) OCCNc1nc(Cl)ncc1Cl = not met
29) CCCN(C)c1nc(Cl)ncc1Cl = met
30) COCCNc1nc(Cl)ncc1Cl = not met
31) CCC(C)CNc1nc(Cl)ncc1Cl (stereo not shown) = met
